Reported MIC90 values are given for each entry in this list.
Test system: Clostridium perfringens
Method Summary: Antimicrobial activity against Clostridium perfringens under anaerobic conditions after 44 hrs by CLSI-M11-47 protocol based agar dilution method
Type: functional
Assay Endpoint: MIC90

INSERT INTO assay_data (compound, reported_result) VALUES
  ('Cc1ncc([N+](=O)[O-])n1CCO [METRONIDAZOLE]', '4 µg/mL'),
  ('CCO/N=C(\C(=O)N[C@@H]1C(=O)N2C(C(=O)[O-])=C(Sc3nc(-c4cc[n+](C)cc4)cs3)CS[C@H]12)c1nsc(NP(=O)(O)O)n1 [CEFTAROLINE FOSAMIL]', '0.25 µg/mL'),
  ('CO/N=C(\C(=O)N[C@@H]1C(=O)N2C(C(=O)O)=C(CSc3nc(=O)c(O)nn3C)CS[C@H]12)c1csc(N)n1 [CEFTRIAXONE]', '2 µg/mL'),
  ('CCC[C@@H]1C[C@@H](C(=O)N[C@@H]([C@H]2O[C@H](SC)[C@H](O)[C@@H](O)[C@H]2O)[C@H](C)Cl)N(C)C1 [CLINDAMYCIN]', '1 µg/mL');

====

System: Phocaeicola vulgatus
Method Summary: Antimicrobial activity against Bacteroides vulgatus under anaerobic conditions after 44 hrs by CLSI-M11-47 protocol based agar dilution method
Type: functional
Catalogue of MIC90 values
Assay Endpoint: MIC90

INSERT INTO measurements (molecule, experimental_target, reported_result) VALUES
  ('CCO/N=C(\C(=O)N[C@@H]1C(=O)N2C(C(=O)[O-])=C(Sc3nc(-c4cc[n+](C)cc4)cs3)CS[C@H]12)c1nsc(NP(=O)(O)O)n1', 'Phocaeicola vulgatus', '> 64 µg/mL'),
  ('CCC[C@@H]1C[C@@H](C(=O)N[C@@H]([C@H]2O[C@H](SC)[C@H](O)[C@@H](O)[C@H]2O)[C@H](C)Cl)N(C)C1', 'Phocaeicola vulgatus', '> 128 µg/mL'),
  ('Cc1ncc([N+](=O)[O-])n1CCO', 'Phocaeicola vulgatus', '2 µg/mL'),
  ('CO/N=C(\C(=O)N[C@@H]1C(=O)N2C(C(=O)O)=C(CSc3nc(=O)c(O)nn3C)CS[C@H]12)c1csc(N)n1', 'Phocaeicola vulgatus', '> 64 µg/mL');

====

Quick list: MIC50 per entry.
Test system: Clostridium perfringens
Method Summary: Antimicrobial activity against Clostridium perfringens under anaerobic conditions after 44 hrs by CLSI-M11-47 protocol based agar dilution method
Format: functional
Assay Endpoint: MIC50 (µg/mL)

INSERT INTO measurements (compound, units_text, reported_result) VALUES
  ('CCO/N=C(\C(=O)N[C@@H]1C(=O)N2C(C(=O)[O-])=C(Sc3nc(-c4cc[n+](C)cc4)cs3)CS[C@H]12)c1nsc(NP(=O)(O)O)n1 [CEFTAROLINE FOSAMIL]', 'µg/mL', 0.125),
  ('CCC[C@@H]1C[C@@H](C(=O)N[C@@H]([C@H]2O[C@H](SC)[C@H](O)[C@@H](O)[C@H]2O)[C@H](C)Cl)N(C)C1 [CLINDAMYCIN]', 'µg/mL', 0.25),
  ('CO/N=C(\C(=O)N[C@@H]1C(=O)N2C(C(=O)O)=C(CSc3nc(=O)c(O)nn3C)CS[C@H]12)c1csc(N)n1 [CEFTRIAXONE]', 'µg/mL', 0.5),
  ('Cc1ncc([N+](=O)[O-])n1CCO [METRONIDAZOLE]', 'µg/mL', 2);

====

Tested on: Porphyromonas asaccharolytica
Method Summary: Antimicrobial activity against Porphyromonas asaccharolyticus under anaerobic conditions after 44 hrs by CLSI-M11-47 protocol based agar dilution method
Assay type: functional
Assay Endpoint: MIC50 (µg/mL)

INSERT INTO assay_data (molecule, assay_endpoint, comparison_symbol, reported_result) VALUES
  ('CCO/N=C(\C(=O)N[C@@H]1C(=O)N2C(C(=O)[O-])=C(Sc3nc(-c4cc[n+](C)cc4)cs3)CS[C@H]12)c1nsc(NP(=O)(O)O)n1', 'MIC50', '=', 0.015),
  ('Cc1ncc([N+](=O)[O-])n1CCO', 'MIC50', '=', 0.06),
  ('CO/N=C(\C(=O)N[C@@H]1C(=O)N2C(C(=O)O)=C(CSc3nc(=O)c(O)nn3C)CS[C@H]12)c1csc(N)n1', 'MIC50', '=', 0.06),
  ('CCC[C@@H]1C[C@@H](C(=O)N[C@@H]([C@H]2O[C@H](SC)[C@H](O)[C@@H](O)[C@H]2O)[C@H](C)Cl)N(C)C1', 'MIC50', '≤', 0.03);

====

Tested on: Clostridium hylemonae
Method Summary: Antimicrobial activity against Clostridium hylemonae under anaerobic conditions after 44 hrs by CLSI-M11-47 protocol based agar dilution method
Format: functional
MIC90 listing for selected compounds.
Assay Endpoint: MIC90 (µg/mL)

INSERT INTO measurements (molecule, assay_endpoint, units_text, reported_result) VALUES
  ('Cc1ncc([N+](=O)[O-])n1CCO', 'MIC90', 'µg/mL', 4),
  ('CCC[C@@H]1C[C@@H](C(=O)N[C@@H]([C@H]2O[C@H](SC)[C@H](O)[C@@H](O)[C@H]2O)[C@H](C)Cl)N(C)C1', 'MIC90', 'µg/mL', 128),
  ('CO/N=C(\C(=O)N[C@@H]1C(=O)N2C(C(=O)O)=C(CSc3nc(=O)c(O)nn3C)CS[C@H]12)c1csc(N)n1', 'MIC90', 'µg/mL', 64),
  ('CCO/N=C(\C(=O)N[C@@H]1C(=O)N2C(C(=O)[O-])=C(Sc3nc(-c4cc[n+](C)cc4)cs3)CS[C@H]12)c1nsc(NP(=O)(O)O)n1', 'MIC90', 'µg/mL', 16);

====

Parameter MIC90: see the listing below.
Tested on: Prevotella disiens
Method Summary: Antimicrobial activity against Prevotella disiens under anaerobic conditions after 44 hrs by CLSI-M11-47 protocol based agar dilution method
Type: functional
Assay Endpoint: MIC90 (µg/mL)

INSERT INTO measurements (molecule, experimental_target, assay_endpoint, reported_result) VALUES
  ('CCC[C@@H]1C[C@@H](C(=O)N[C@@H]([C@H]2O[C@H](SC)[C@H](O)[C@@H](O)[C@H]2O)[C@H](C)Cl)N(C)C1', 'Prevotella disiens', 'MIC90', 128),
  ('Cc1ncc([N+](=O)[O-])n1CCO', 'Prevotella disiens', 'MIC90', 2),
  ('CCO/N=C(\C(=O)N[C@@H]1C(=O)N2C(C(=O)[O-])=C(Sc3nc(-c4cc[n+](C)cc4)cs3)CS[C@H]12)c1nsc(NP(=O)(O)O)n1', 'Prevotella disiens', 'MIC90', 32),
  ('CO/N=C(\C(=O)N[C@@H]1C(=O)N2C(C(=O)O)=C(CSc3nc(=O)c(O)nn3C)CS[C@H]12)c1csc(N)n1', 'Prevotella disiens', 'MIC90', 8);

====

Test system: Fusobacterium nucleatum
Method Summary: Antimicrobial activity against Fusobacterium nucleatum under anaerobic conditions after 44 hrs by CLSI-M11-47 protocol based agar dilution method
Type: functional
Collected MIC90 values appear next to each entry.
Assay Endpoint: MIC90

INSERT INTO measurements (molecule, reported_result) VALUES
  ('Cc1ncc([N+](=O)[O-])n1CCO', '0.25 µg/mL'),
  ('CCO/N=C(\C(=O)N[C@@H]1C(=O)N2C(C(=O)[O-])=C(Sc3nc(-c4cc[n+](C)cc4)cs3)CS[C@H]12)c1nsc(NP(=O)(O)O)n1', '0.125 µg/mL'),
  ('CO/N=C(\C(=O)N[C@@H]1C(=O)N2C(C(=O)O)=C(CSc3nc(=O)c(O)nn3C)CS[C@H]12)c1csc(N)n1', '0.5 µg/mL'),
  ('CCC[C@@H]1C[C@@H](C(=O)N[C@@H]([C@H]2O[C@H](SC)[C@H](O)[C@@H](O)[C@H]2O)[C@H](C)Cl)N(C)C1', '0.06 µg/mL');

====

Entries and their MIC50
Test system: Actinomyces israelii
Method Summary: Antimicrobial activity against Actinomyces israelii under anaerobic conditions after 44 hrs by CLSI-M11-47 protocol based agar dilution method
Assay type: functional
Assay Endpoint: MIC50

INSERT INTO assay_data (molecule, assay_endpoint, reported_result) VALUES
  ('CCO/N=C(\C(=O)N[C@@H]1C(=O)N2C(C(=O)[O-])=C(Sc3nc(-c4cc[n+](C)cc4)cs3)CS[C@H]12)c1nsc(NP(=O)(O)O)n1 [CEFTAROLINE FOSAMIL]', 'MIC50', '0.015 µg/mL'),
  ('CO/N=C(\C(=O)N[C@@H]1C(=O)N2C(C(=O)O)=C(CSc3nc(=O)c(O)nn3C)CS[C@H]12)c1csc(N)n1 [CEFTRIAXONE]', 'MIC50', '0.125 µg/mL'),
  ('Cc1ncc([N+](=O)[O-])n1CCO [METRONIDAZOLE]', 'MIC50', '> 32 µg/mL'),
  ('CCC[C@@H]1C[C@@H](C(=O)N[C@@H]([C@H]2O[C@H](SC)[C@H](O)[C@@H](O)[C@H]2O)[C@H](C)Cl)N(C)C1 [CLINDAMYCIN]', 'MIC50', '0.06 µg/mL');
